- Tested on: mouse liver microsomes, percent remaining, LC-MS/MS
- assay notes: Inhibitors of N370S glucocerebrosidase as a Potential Chaperone Treatment of Gaucher Disease: Metabolic Stability Profile
- recorded conditions: at 5 µM; hits give high values
experimental readout: percent remaining (%)
Just the number in %, nothing appended.

Q: Consider the molecule S=C(NCCCc1cnc[nH]1)NCCCN(Cc1ccc(Cl)c(Cl)c1)c1ccc(Br)cn1 . State its measured percent remaining.
Ans: 102
